Test: Encapsulation rate, drug loading concentration and total RNA concentration detection (RiboGreen)
Type: physicochemical
Endpoint label: total RNA concentration, times that of compound 21 (times)
Write the value in times as a bare number.

Inquiry: # total RNA concentration, times that of compound 21 lookup, item CCCCCCCCC(CCCCCCCC)COC(=O)CCCCCN(CCCCCC(=O)OCC(CCCCCCCC)CCCCCCCC)CCN(C)CCO [YK-209]
Reply text: 1.41

Inquiry: # total RNA concentration, times that of compound 21 lookup, item CCCCCCCCCCOC(=O)CCCN(CCCCCC(=O)OCC(CCCCCCCC)CCCCCCCC)CCN(C)CCO [YK-207]
Reply text: 1.42

Inquiry: # total RNA concentration, times that of compound 21 lookup, item CCCCCCCCCCCOC(=O)CCCCCN(CCCCCCCC(=O)OC(CCCCCCC)CCCCCCC)CCN(C)CCO [YK-206]
Reply text: 1.36

Inquiry: # total RNA concentration, times that of compound 21 lookup, item CCCCCCCCCCCOC(=O)CCCCCN(CCCCCCCC(=O)OCC(CCCCCCCC)CCCCCCCC)CCN(C)CCO [YK-202]
Reply text: 1.40
